These entries and their values trace back to PubChem BioAssay (NCI).

System: NCI-H322M lung
Protocol Details: NCI-60 one-dose screen, 48 h (100 = growth as untreated, 0 = no growth, -100 = all killed)
Test Context: 10 µM unless noted
Compounds without any hit were thinned out: in the full panel of roughly 83,000, 20% have a hit.
Label Satisfied when growth >= 50%; otherwise Not satisfied.

In: Reported growth at or above 50%? CC1C(/C=N/Nc2ccccc2)C(C#N)(C#N)C1(C#N)C#N (centres undefined)
Out: Satisfied

In: I'd appreciate it if you could say whether `CCOC(=O)c1cc(C(=O)c2ccc(O)c(O)c2)n2ccc(-c3ccn4c(C(=O)c5ccc(O)c(O)c5)cc(C(=O)OCC)c4c3)cc12` has growth at least equal to 50%.
Out: Satisfied

---
In: In plain terms: is recorded growth at least 50% for `CC/C=C\C/C=C\C[C@H]1C/C=C2/C(=O)C=C[C@@H]2C/C=C\CCC(=O)O1` ?
Out: Not satisfied

In: Kindly determine if growth recorded for `CC1=C/C(=C(\c2ccc(N(C)C)cc2)c2ccc([N+](C)(C)C)cc2)C=CC1=[N+](C)C` is above or exactly 50%.
Out: Satisfied

In: Quick check, growth >= 50%? `COc1cc2c(cc1O)CC[C@@H]1[C@@H]2CC[C@]2(C)[C@@H](OCCCN(C)C)CC[C@@H]12`
Out: Not satisfied

###

Test system: HOP-92 NSCLC
Protocol Details: NCI-60 one-dose screen, 48 h (100 = growth as untreated, 0 = no growth, -100 = all killed)
Test Context: 10 µM unless noted
The panel holds about 83,000 compounds, 20% with a hit somewhere; the sample as a whole holds those more often. Activity calls are given as the source filed them. How the source made its calls: active means growth percent below 10; inactive means the rest.
Parameter Measured: growth

Examples with their reported growth follow.
In: What value of growth has been reported for the following compound? `Cc1ncc(C(=O)Nc2ccc(CN3CCN(C)CC3)c(C(F)(F)F)c2)cc1C#Cc1cnc2cccnn12`
Out: -4.77% (active)

In: Entry `O=C(Cc1ccc(/C=C/C(=O)c2ncc[nH]2)cc1)Nc1ccccc1` : reported growth = ?
Out: 83.6% (inactive)

In: State the recorded growth for this entry: `COc1cc(-c2nc(C(=O)NCC(=O)NO)nn2-c2ccc(Cl)cc2)cc(OC)c1OC`
Out: 86.5% (inactive)

In: Form field: reported growth of `CCc1c(Nc2ccccc2C)nc(N)[nH]c1=O`
Out: 93.7% (inactive)

In: Please report the recorded growth for `C=CC(=O)Nc1cccc(-c2nc(SC)nc(NCCc3ccc(OC)c(OC)c3)c2C#N)c1` .
Out: 62.2% (inactive)

In: Field request: growth | item: C=CCSSc1ncnc2c1ncn2C1OC(CO)C(O)C1O (stereo not given)
Out: 28.2% (inactive)

Continuing:
In: // returns reported growth for input `CC(C)(CCCN=C(N)Nc1ccc(Cl)cc1)c1ccc(F)cc1`
Out: 28% (inactive)

In: What measured growth goes with `O=C1NC(=S)NC(=O)C1CC(=O)n1c(-c2ccccc2)nc2ccccc21` ?
Out: 108% (inactive)

In: Dear colleague, I am looking for the recorded growth of the following compound: `CSc1ccc(-c2n[nH]nc2-c2cc3ccccc3s2)cc1`
Out: 70.3% (inactive)

In: Name the recorded growth for `CC1=CC(C)(C)Nc2ccc(Cc3ccc4c(c3)C(C)=CC(C)(C)N4)cc21` .
Out: 99.7% (inactive)

###

Test system: M14 melanoma
Protocol Details: NCI-60 one-dose screen, 48 h (100 = growth as untreated, 0 = no growth, -100 = all killed)
Test Context: 10 µM unless noted
Compounds without any hit were thinned out: in the full panel of roughly 83,000, 20% have a hit.
Hi! Could you tag entries with growth below 30% as criterion met, and those at or above as criterion not met? Much appreciated.

In: Does this compound meet the criterion growth < 30%? `CC1=C[C@H]2c3c(c(O)c(O)c4oc5ccccc5c(=O)c34)[C@H](c3cc(O)c(O)c4oc5ccccc5c(=O)c34)[C@H]2C(C)(C)C1`
Out: criterion met

In: # TODO verify growth < 30% strictly for this compound: `N#CCCN=Nc1c(O)[nH]c2ccc([N+](=O)[O-])cc12`
Out: criterion not met

In: State whether 30% exceeds growth recorded for `O=[N+]([O-])c1ccc(Nc2nc(NCCN3CCOCC3)ncc2[N+](=O)[O-])cc1` .
Out: criterion not met

In: Is the reported growth for `COc1ccc(-c2cc(Nc3ccnc(N4CCOCC4)n3)on2)cc1` strictly below 30%?
Out: criterion met

In: Record `CN(C)c1ccc(NC(=O)c2ccc(/C=C/C(=O)c3ncc[nH]3)cc2)cc1` : is its growth strictly below 30%?
Out: criterion not met

New cases:
In: Please let me know if `CCc1nnc(CNc2ccc(Cl)cc2)o1` shows growth below 30%.
Out: criterion not met

In: Report whether reported growth is lower than 30% (strictly) for `COc1cc(Nc2cc(C)nc(N3CCN(c4ccnc5cc(Cl)ccc45)CC3)n2)cc(OC)c1`
Out: criterion met

In: Please determine if `NC(=O)c1cc(Br)ccc1NC(=O)/C=C/c1ccccc1` is below 30% in terms of growth.
Out: criterion met

In: Lab log: compare recorded growth with 30%; is it strictly lower for CC1=C(O)C(=O)C(C(C#N)(C#N)C(C#N)C#N)C1 (stereo unspecified) ?
Out: criterion not met

In: Determine if `N#Cc1c(-c2ccc(Cl)cc2)nc(NN=Cc2ccco2)nc1N1CCOCC1` shows growth strictly lower than 30%.
Out: criterion not met

In: Does the reported growth of `Cn1cccc1-c1nc2c3c(ccc2[nH]1)C(=O)c1ccccc1C3=O` stay below 30%?
Out: criterion not met

###

System: SNB-19 CNS
Protocol Details: NCI-60 one-dose screen, 48 h (100 = growth as untreated, 0 = no growth, -100 = all killed)
Test Context: 10 µM unless noted
Method: Growth inhibition of the SNB-19 human tumor cell line is measured as a screen for anti-cancer activity. Cells are grown in 96 well plates and exposed to the test compound for 48 hours. Compounds are tested at a single concentration, which is 10^-5 M for most compounds. The reported endpoint is percent growth (GI% or GIPRCNT), where numbers from 0 - 100% represent growth inhibition, and numbers from -100% - 0 represent cell death. For example, a value of 40 represents 60% growth inhibition. […]
This is part of a sample that, as a whole, favours compounds with a hit. Of some 83,000 tested, about 20% had one in any assay.
Parameter Measured: growth (%)
Answer with a number only, understood to be in %.

Previously resolved entries follow.
In: Observed growth on SNB-19 CNS for CC[N+](CC)=c1sc2c(s1)C(c1ccc(Cl)cc1)Oc1ccc(Cl)cc1-2 (stereo not given) , please.
Out: 12

In: I'm curious: which growth was measured for `CC1=CC(C)(C)Nc2ccc(Cc3ccc4c(c3)C(C)=CC(C)(C)N4)cc21` tested on SNB-19 CNS?
Out: 93.4

New cases:
In: Please state recorded growth (tested on SNB-19 CNS) of `C=CC(=O)Nc1cccc(-c2nc(SC)nc(NCCN3CCOCC3)c2C#N)c1`
Out: 88.5

In: Give recorded growth with SNB-19 CNS for the following molecule: `COc1cc2c(cc1-c1c(C)noc1C)ncc1nc(-c3ccccn3)n([C@H](C)COC(F)F)c12`
Out: 60.2

In: Recall the recorded growth for `FC(F)(F)c1ccc(-c2cn3nc(-c4c[nH]c5ccc(Br)cc45)sc3n2)cc1` with SNB-19 CNS and state it.
Out: 100

###

Tested on: SF-268 CNS
Protocol Details: NCI-60 one-dose screen, 48 h (100 = growth as untreated, 0 = no growth, -100 = all killed)
Test Context: 10 µM unless noted
About 83,000 compounds went through this panel and 20% of them were active in at least one assay; those are over-represented in the sample as a whole.
Label 1.0 when growth >= 70%; otherwise 0.0.

In: Decide: is the reported value of growth for `COc1cccc(-c2nn(C(C)(C)C)cc2-c2ccnc(NCCCNS(=O)(=O)c3cccc4ccccc34)c2)c1` equal to or greater than 70%?
Out: 1.0

In: Decide: growth of `O=C1NC(=S)N[C@H]1CC(=O)n1cnc2ccccc21` >= 70%?
Out: 1.0

In: # bool: growth of `N#Cc1nnn(-c2ccc(S(N)(=O)=O)cc2)c1NC(=O)CCl` >= 70%
Out: 1.0

In: Please indicate if the recorded growth for `COC(=O)[C@@H]1CCCN1C(=O)[C@@H]1CCCN1C(=O)[C@H](Cc1ccccc1)NC(=S)Nc1cc(C(F)(F)F)cc(C(F)(F)F)c1` meets or exceeds 70%.
Out: 0.0

***
In: API: above_or_equal(metric=growth, cutoff=70%) for item `O=C(CCCCC(=O)N/N=C\c1ccccc1O)N/N=C\c1ccccc1O`
Out: 0.0

In: Does the reported growth for `N=C(N)c1ccc(-c2ccc(-c3ccc4ccccc4c3)s2)s1` fall at or above the 70% mark?
Out: 0.0

In: Decide: is the reported value of growth for `O=S(=O)(Nc1ccc(OC(F)F)cc1)c1ccc(-c2cnc(C3CC3)o2)cc1` equal to or greater than 70%?
Out: 1.0

In: Does c1csc(C2=NN3C(C2)c2ccccc2OC3c2ccncc2)c1 (configuration not stated) have a reported growth of at least 70%?
Out: 1.0

In: Determine whether this compound has growth no lower than 70%: `O=CNc1ccc2c(c1)Cc1cccc(NC=O)c1-2`
Out: 1.0

In: Hi team, for `CCNC(=O)Oc1ccc(/C(=C(\C)c2ccc(Cl)cc2)c2ccc(OCCN(CC)CC)cc2)cc1` , is the recorded growth at or above 70%?
Out: 0.0

In: Is it the case that `CCOc1nc(-c2ccccc2)cc2c(O)c(C(=O)N/N=C/c3ccc(O)cc3O)[nH]c(=O)c12` has growth reaching or exceeding 70%?
Out: 0.0

In: Form field: growth at least 70%? Entry: `Cc1cc(N2CCN(c3ccnc4cc(Cl)ccc34)CC2)nc(N2CCOCC2)n1`
Out: 1.0

In: API: above_or_equal(metric=growth, cutoff=70%) for item `O=C1/C(=C/c2ccc(Cl)cc2)SC(=S)N1CCc1ccc(O)cc1`
Out: 1.0

In: Could you please find out whether `Fc1ccc2[nH]cc(SSc3c[nH]c4ccc(F)cc34)c2c1` has growth that meets 70% or exceeds it?
Out: 0.0

In: Test whether the compound `Clc1ccc2c(NCCNc3nc(N4CCCCC4)nc4ccccc34)ccnc2c1` records growth of 70% or higher.
Out: 0.0

In: Say whether `CC1=C[C@H]2c3c(c(O)c(O)c4oc(-c5ccccc5)cc(=O)c34)[C@H](c3cc(O)c(O)c4oc(-c5ccccc5)cc(=O)c34)[C@H]2C(C)(C)C1` shows growth of 70% or more.
Out: 0.0

In: Could you verify whether the entry `CC(=O)Nc1ccc(-n2c(O)c(/C=N/NC(=O)Cc3ccccc3Nc3c(Cl)cccc3Cl)sc2=S)cc1` shows growth of no less than 70%?
Out: 1.0

In: Reported growth at or above 70%? `COc1cccc(-c2nc3sccn3c2-c2ccnc(NCCNS(=O)(=O)c3ccc(F)cc3)c2)c1`
Out: 0.0

In: Kindly determine if growth recorded for `Cn1cc(C(=O)c2nc(-c3c[nH]c4ccccc34)no2)c2ccccc21` is above or exactly 70%.
Out: 1.0

In: Could you please find out whether `C(=C\c1nccc2c1[nH]c1ccccc12)/c1ccccc1` has growth that meets 70% or exceeds it?
Out: 0.0

In: Please indicate if the recorded growth for `Cc1cc2nc(NC(=O)CN3CCN(CCN4C(=O)c5cccc6cccc(c56)C4=O)CC3)sc2cc1C` meets or exceeds 70%.
Out: 1.0

In: Hi team, for `Cc1cc2nc3[nH]c4ccccc4c3nc2cc1C` , is the recorded growth at or above 70%?
Out: 1.0

In: In plain terms: is recorded growth at least 70% for COc1ccc(C2CC(c3ccc4ccccc4c3)=NN2/C=C2\SC(=S)N(NC(=O)Cc3ccccc3Nc3c(Cl)cccc3Cl)C2=O)cc1 (configuration not stated) ?
Out: 0.0

In: Could you please find out whether `CC(=O)Nc1ccc(S(=O)(=O)Nc2cccc(-c3nc(-c4ccc(NC(=O)c5cccnc5)cc4Cl)no3)c2)cc1` has growth that meets 70% or exceeds it?
Out: 0.0

In: API: above_or_equal(metric=growth, cutoff=70%) for item `COc1cc(-c2nn(-c3ccc(Br)cc3)cc2C(=O)O)ccc1O`
Out: 1.0
